Origin of measurements: PubChem BioAssay (NCI)

So I've got a bunch of molecules here, and I need their TGI values.
test system: SN12C renal; assay: NCI tumour cell line growth inhibition, 48 h

Fill in: TGI of `CN(C)c1ccc(/C=N\NC(=O)Nc2cccc3ccccc23)cc1` is ___
31.4 µM

What do you get for COc1ccc2[nH]c3c(c2c1)CC(=S)N1CCCC(CC3=O)C1 (centres undefined) ?
> 100 µM

What do you get for COC(=O)/C=C1\CCC(C)O1 (centres undefined) ?
> 100 µM

What do you get for `Cn1cc(C2=C(c3cccc(Br)c3)C(=O)NC2=O)c2ccccc21` ?
> 25 µM

What do you get for O=C(O)C1C2C=CC(C2)C1c1ccccc1 (centres undefined) ?
> 100 µM

What do you get for `c1ccc(NN=C(c2ccccn2)c2ccccn2)nc1` ?
> 100 µM

What do you get for `O=C(c1ccccc1)c1c(-c2ccccc2)n(-c2ccccc2)[nH]c(=O)c1=O` ?
> 100 µM

What do you get for `COc1ccc(-c2coc3c4c(ccc3c2=O)OCO4)cc1OC` ?
> 100 µM

What do you get for `C/C(=N/NC(=S)Nc1ccc(Cl)cc1)c1cccc(/C(C)=N\NC(=S)Nc2ccc(Cl)cc2)n1` ?
> 100 µM

====

system: KM12 colon; experiment: NCI tumour cell line growth inhibition, 48 h
REPORTED PROPERTY: TGI

Fill in: TGI of O=CN1CCN(CC(O)CN2CCCCC2)CC1 (configuration not stated) is ___
> 100 µM

What do you get for `O=c1oc2ccccc2cc1-c1cn2ccccc2n1` ?
37.2 µM

What do you get for `O=C(O)c1ccc(OCc2ccccc2)c(Cl)c1` ?
> 100 µM

What do you get for `COc1ccc(-c2nc(-c3cc4c(ccc5ccccc54)oc3=O)cs2)cc1` ?
> 100 µM

What do you get for `C#CC(C)(C)OC(=O)C(=[N+]=[N-])C(C)=O` ?
> 10 µM

What do you get for `CCCOc1ccc2sc(NC(=O)OC)nc2c1` ?
> 100 µM

What do you get for Cc1cc(C2CC(O)C(CO)O2)c(F)cc1F (configuration not stated) ?
> 100 µM

What do you get for CCCO/S(=N\S(=O)(=O)c1ccccc1)c1ccccc1[N+](=O)[O-] (configuration not stated) ?
> 100 µM

What do you get for `c1ccc(NN=C(c2ccccn2)c2ccccn2)nc1` ?
> 100 µM

What do you get for COc1ccc(CC2c3cc(OC)c(OC)cc3CC[N+]2(C)C)cc1OC (configuration not stated) ?
> 100 µM

What do you get for `CN(CCO)c1ccc(N2Cc3ccccc3OC3=C2C(=O)c2c(O)ccc(O)c2C3=O)cn1` ?
1.63 µM

What do you get for `Cc1ccc(NC(=O)CSc2nnc(-c3ccc(N=Cc4ccc(Cl)cc4)cc3)o2)cc1` ?
> 100 µM

What do you get for `COc1ccc(O)c(C(=O)c2ccc(C(=O)N[C@H]3CCCNC[C@@H]3NC(=O)c3ccncc3)cc2)c1F` ?
> 16.5 µM

What do you get for `O=P1(c2ccccc2)CCCCC1` ?
> 100 µM

What do you get for Cc1nn(C(=O)c2ccc(Cl)cc2)c2c1C(/C=C/c1ccccc1)SC(N)=N2 (configuration not stated) ?
> 10 µM

What do you get for `N#Cc1c(N/N=C/c2ccc(Cl)cc2Cl)nc(N)nc1N1CCCC1` ?
> 100 µM

What do you get for `COc1ccc(-n2cnn3c(=O)c4cn[nH]c4nc23)cc1` ?
> 10 µM

What do you get for `COc1cc(C=O)c(-c2cc(OC)c(OC)cc2C=O)cc1OC` ?
> 100 µM

What do you get for `O=C(N[C@@H](c1ccccc1)[C@@H](O)C(=O)OCc1ccc([N+](=O)[O-])cc1)c1ccccc1` ?
> 100 µM

What do you get for `Cc1cc(S(=O)(=O)O)c(NC(=O)C(=O)Cc2cc(=O)oc3cc(O)ccc23)cc1Cl` ?
> 100 µM

What do you get for Cc1c(O)c(OC2OC(CO)C(O)C(O)C2O)cc2c1CC[C@@H]1C2(C)C(=O)C[C@]2(C)[C@@H]([C@@](C)(O)C(=O)CCC(C)(C)O)[C@H](O)C[C@@]12C (some centres not stated) ?
> 100 µM

What do you get for `COC(=O)c1ccccc1Nc1nc(-c2cccs2)nc2cc(OC)c(OC)cc12` ?
> 100 µM

What do you get for COc1ccc2c(c1)nc1n2C(c2c(Cl)cccc2Cl)SC1 (configuration not stated) ?
> 100 µM

What do you get for O=C(/C=C/c1ccccc1Cl)NC1C=Nc2ccc([N+](=O)[O-])cc2NC1 (configuration not stated) ?
> 100 µM

What do you get for `Cc1cc(C)c(/C=C2\C(=O)Nc3ccc(NC(=O)CCCCCCC(=O)NO)cc32)[nH]1` ?
> 100 µM

What do you get for CCCCCC(=O)CCCCCCCC(O)CC(=O)OCC (configuration not stated) ?
> 100 µM

What do you get for O=[N+]([O-])c1ccc(N2N=C(c3ccc(NCc4nc5ccccc5[nH]4)cc3)CC2c2ccco2)cc1 (configuration not stated) ?
41.4 µM
